molecular target: Human 5-lipoxygenase (Homo sapiens, UniProt P09917); construct: purchased Cayman 60402; host or cells: insect cells; experiment: Activity of compounds against 5-LO enzyme (LTB4 measurement and/or fluorescence method); assay type: biochemical; settings: 5-LO, single concentration of 10 uM in duplicate
Sequence (P09917 whole entry): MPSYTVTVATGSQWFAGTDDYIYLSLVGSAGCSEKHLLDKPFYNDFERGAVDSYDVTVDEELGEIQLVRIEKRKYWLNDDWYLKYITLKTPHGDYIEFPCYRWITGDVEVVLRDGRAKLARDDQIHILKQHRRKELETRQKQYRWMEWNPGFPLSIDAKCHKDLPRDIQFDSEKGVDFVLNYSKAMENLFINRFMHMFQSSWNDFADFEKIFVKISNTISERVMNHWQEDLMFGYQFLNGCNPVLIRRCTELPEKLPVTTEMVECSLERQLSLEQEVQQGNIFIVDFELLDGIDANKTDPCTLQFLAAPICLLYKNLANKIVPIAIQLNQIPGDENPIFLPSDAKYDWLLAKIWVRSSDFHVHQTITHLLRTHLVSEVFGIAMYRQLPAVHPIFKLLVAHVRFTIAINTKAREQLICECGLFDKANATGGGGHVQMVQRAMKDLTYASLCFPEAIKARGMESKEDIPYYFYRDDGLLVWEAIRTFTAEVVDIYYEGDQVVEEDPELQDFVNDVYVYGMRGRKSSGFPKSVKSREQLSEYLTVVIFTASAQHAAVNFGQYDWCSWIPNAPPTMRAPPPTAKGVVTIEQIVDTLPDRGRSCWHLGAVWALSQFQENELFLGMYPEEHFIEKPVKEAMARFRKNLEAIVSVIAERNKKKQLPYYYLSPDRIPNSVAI
READOUT_KIND: inhibition at 10 µM

Consider the reported inhibition at 10 µM for these molecules:
CCc1nc2ccc(Cl)cn2c1C(=O)NCc1ccc(Oc2ccccc2)cc1; < 40%
CCc1nc2ccc(Cl)cn2c1C(=O)NCc1ccc(N2CCN(Cc3ccc(F)cc3)CC2)cc1; > 69%

We now examine a further molecule.
Endpoint output: inhibition at 10 µM of `CCc1nc2ccc(Cl)cn2c1C(=O)NCc1ccc(-c2ccc(Cl)cc2)cc1` . Value?
< 40%

====

# reported melting point; entries follow

Consider the reported melting point for these compounds:
CCc1nc2cc(Cl)ccn2c1C(=O)NCc1ccc(N2CC(COc3ccc(F)cc3)OC2=O)cc1 (centres unmarked) [compound 378]; > 97.1 °C
CCc1nc2cc(Cl)ccn2c1C(=O)NCc1ccc(N2CC(C)CC(C)C2)cc1 (centres unmarked) [compound 198]; 181.5 to 182.8 °C
CCc1nc2ccc(Cl)cn2c1C(=O)NCc1ccc(Oc2ccc(OC(F)(F)F)cc2)nc1 [compound 189]; 154 to 155 °C
CCc1nc2cc(Cl)ccn2c1C(=O)NCc1ccc(N2CCC(O)CC2)cc1 [compound 199]; 179.1 to 180 °C
CCc1nc2ccc(Cl)cn2c1C(=O)NC1CCN(Cc2ccc(OC(F)(F)F)cc2)CC1 [compound 309]; 157 to 158 °C

Endpoint output: melting point of CCc1nc2ccc(Cl)cn2c1C(=O)NCc1cccc(OCc2ccc(OC(F)(F)F)cc2)c1 [compound 353] . Value?
> 142.7 °C (dec.)

Endpoint output: melting point of CCc1nc2ccc(Cl)cn2c1CO [compound 146] . Value?
173.2 to 174.2 °C

Endpoint output: melting point of CCc1nc2ccc(Cl)cn2c1C(=O)NCc1ccc(N2CCN(c3ccc(OC(F)(F)F)cc3)CC2)cc1 [compound 158] . Value?
206.5 to 207 °C

====

READOUT_KIND: melting point

Consider the reported melting point for these molecules:
CCc1nc2cc(Cl)ccn2c1C(=O)NCc1ccc(C(F)(F)F)cc1 [compound 155]; 196.2 to 196.9 °C
CCc1nc2ccc(Cl)cn2c1C(=O)NCCc1ccc(Cl)cc1 [compound 137]; 158 to 159 °C
CCc1nc2cc(Cl)ccn2c1C(=O)NCc1cccc(-c2ccc(OC(F)(F)F)cc2)c1 [compound 204]; 192.6 °C
CCc1nc2cc(Cl)ccn2c1C(=O)NCc1ccc(N2CCC(c3ccc(Cl)cc3)CC2)cc1 [compound 297]; 177 °C
CCc1nc2ccc(Cl)cn2c1C(=O)NCc1ccc(N2CC(C)OC(C)C2)cc1 (stereo not drawn) [compound 182]; 176 to 177 °C

We now examine a further molecule.
Endpoint output: melting point of CCc1nc2ccc(Cl)cn2c1C(=O)NCc1cccc(CC(=O)Nc2ccc(F)cc2)c1 [compound 355] . Value?
> 198.8 °C (dec.)

====

READOUT_KIND: melting point

CCc1nc2cc(Cl)ccn2c1C(=O)NCc1ccc(N2CCN(c3ccc(OC(F)(F)F)cc3)CC2)cc1 [compound 159]; 216.3 to 217 °C
CCc1nc2ccccn2c1C(=O)NCc1ccc(C2CCOCC2)cc1 [compound 362]; > 133.7 °C (dec.)
CCc1nc2cc(Cl)ccn2c1C(=O)NCc1ccc(N2CC(C)OC(C)C2)cc1 (stereo not shown) [compound 183]; 165 to 166 °C

We now examine a further molecule.
Endpoint output: melting point of CCc1nc2ccc(Cl)cn2c1C(=O)NCc1cccc(N2CCN(c3ccc(OC(F)(F)F)cc3)CC2)c1 [compound 356] . Value?
> 168 °C (dec.)

====

# reported inhibition at 10 µM; entries follow
biological target: Human 5-lipoxygenase (Homo sapiens); construct: purchased Cayman 60402; host or cells: insect cells; assay: Activity of compounds against 5-LO enzyme (LTB4 measurement and/or fluorescence method); type: biochemical; details: 5-LO, single concentration of 10 uM in duplicate

Consider the reported inhibition at 10 µM for these compounds:
CCc1nc2ccc(Cl)cn2c1CNc1ccc(OC(F)(F)F)cc1; 40 to 69%
COc1ccc(CCNC(=O)c2c(C)nc3ccccn23)cc1; < 40%
CCc1nc2ccc(Cl)cn2c1C(=O)NCc1ccc(-c2ccc(C#N)cc2)cc1; < 40%

Endpoint output: inhibition at 10 µM of `CCc1nc2ccc(Cl)cn2c1-c1nc(Cc2ccc(Oc3ccc(F)cc3)cc2)no1` . Value?
< 40%

Endpoint output: inhibition at 10 µM of `Cc1nc2ccccn2c1NC(=O)Cc1ccccc1` . Value?
< 40%

Endpoint output: inhibition at 10 µM of `CCc1nc2cc(C)ccn2c1C(=O)NCc1ccc(N2CCOCC2)cc1` . Value?
< 40%

Endpoint output: inhibition at 10 µM of `CCc1nc2ccc(Cl)cn2c1C(=O)NCc1ccc(C(F)(F)F)cc1` . Value?
< 40%

Endpoint output: inhibition at 10 µM of `CCc1nc2cc(Cl)ccn2c1C(=O)NCc1ccc2oc(-c3ccc(F)cc3)nc2c1` . Value?
< 40%

====

biological target: Human 5-lipoxygenase (Homo sapiens, UniProt P09917); construct: purchased Cayman 60402; host or cells: insect cells; test: Activity of compounds against 5-LO enzyme (LTB4 measurement and/or fluorescence method); type: biochemical; settings: 5-LO, single concentration of 10 uM in duplicate
# reported inhibition at 10 µM; entries follow

Consider the reported inhibition at 10 µM for these molecules:
CCc1nc2cc(Cl)ccn2c1C(=O)NCc1ccc(N2CCC(Oc3ccc(F)cc3)CC2)cc1; > 69%
CCOC(=O)c1c(C)nc2cc(-c3ccccc3)ccn12; 40 to 69%
Cc1nc2ccccn2c1C(=O)NCc1ccccc1; < 40%
CCc1nc2ccc(Cl)cn2c1C(=O)NCc1ccc(N2CCC(NC(=O)Cc3ccc(F)cc3)CC2)cc1; < 40%
Cc1nc2ccccn2c1C(=O)NCc1cccnc1; < 40%
CCc1nc2cc(Cl)ccn2c1C(=O)NCc1ccc(N2CCC(COC(F)F)CC2)cc1; > 69%

Return inhibition at 10 µM measured with Human 5-lipoxygenase (Homo sapiens, UniProt P09917) given this molecule: `CCNC(=O)c1c(CC)nc2ccc(Cl)cn12`
< 40%

Return inhibition at 10 µM measured with Human 5-lipoxygenase (Homo sapiens, UniProt P09917) given this molecule: `Cc1nc2ccccn2c1C(=O)NCC1CCN(C(=O)OC(C)(C)C)CC1`
< 40%

Return inhibition at 10 µM measured with Human 5-lipoxygenase (Homo sapiens, UniProt P09917) given this molecule: `Cc1nc2cc(C#N)ccn2c1C(=O)NCc1ccccc1`
< 40%

Return inhibition at 10 µM measured with Human 5-lipoxygenase (Homo sapiens, UniProt P09917) given this molecule: `CCc1nc2cc(Cl)ccn2c1C(=O)NCc1ccc(-c2ccc(C=O)cc2)cc1`
40 to 69%

Return inhibition at 10 µM measured with Human 5-lipoxygenase (Homo sapiens, UniProt P09917) given this molecule: `CCc1nc2ccc(Cl)cn2c1C(=O)NCc1cc2cc(Cl)ccc2s1`
< 40%

Return inhibition at 10 µM measured with Human 5-lipoxygenase (Homo sapiens, UniProt P09917) given this molecule: `Cc1nc2ccc(F)cn2c1C(=O)NCc1ccccc1`
< 40%

Return inhibition at 10 µM measured with Human 5-lipoxygenase (Homo sapiens, UniProt P09917) given this molecule: `CCc1nc2cc(OC)ccn2c1C(=O)NCc1ccc(N2CCOCC2)cc1`
< 40%

Return inhibition at 10 µM measured with Human 5-lipoxygenase (Homo sapiens, UniProt P09917) given this molecule: `Cc1ccc2nc(C)c(C(=O)NCc3ccccc3)n2c1`
< 40%

====

READOUT_KIND: melting point

Consider the reported melting point for these compounds:
CCc1nc2cc(Cl)ccn2c1C(=O)NCc1ccc(CC2CCOCC2)cc1 [compound 359]; > 125.9 °C (dec.)
CCc1nc2ccc(Cl)cn2c1C(=O)NCc1cc2cc(Cl)ccc2s1 [compound 361]; > 220 °C
CCc1nc2ccc(Cl)cn2c1C(=O)OCc1ccc(-c2ccccc2)cc1 [compound 162]; 122.3 to 123 °C
CCc1nc2cc(Cl)ccn2c1C(=O)NCc1ccc(N2CCN(Cc3ccc(OC(F)(F)F)cc3)CC2)cc1 [compound 157]; 137.1 to 137.6 °C
CCc1nc2cnccn2c1C(=O)NCc1ccc(OC(F)(F)F)cc1 [compound 141]; 176 to 177 °C
CCc1nc2ccc(Cl)cn2c1C(=O)NCc1ccc(N2CCN(Cc3ccc(OC(F)(F)F)cc3)CC2)cc1 [compound 156]; 138.1 to 138.7 °C

Endpoint output: melting point of CCC1=C(C(=O)NCc2ccc(N3CCC(C)(C)CC3)cc2)N2C=CC(Cl)=CC2N1 (centres unmarked) [compound 211] . Value?
121.3 °C

Endpoint output: melting point of CCc1nc2ccc(Cl)cn2c1C(=O)NCc1ccc(CC2CCOCC2)cc1 [compound 358] . Value?
132.2 to 133 °C

Endpoint output: melting point of CCc1nc2cc(Cl)ccn2c1C(=O)NCc1ccc2oc(C3CCCCC3)nc2c1 [compound 299] . Value?
163 °C

Endpoint output: melting point of CCc1nc2cc(C)ccn2c1C(=O)NCc1ccc(N2CCOCC2)cc1 [compound 94] . Value?
190 °C

Endpoint output: melting point of CCc1nc2ccc(Cl)cn2c1-c1nc(Cc2ccc(Oc3ccc(F)cc3)cc2)no1 [compound 289] . Value?
129.9 °C
